Assay: absolute recovery over mixed-bed multilayer solid-phase extraction; higher = better recovery
Conditions: wastewater effluent; enrichment method: SPE
absolute recovery overview

[
  {
    "molecule": "COc1ccc2cc(C(C)C(=O)[O-])ccc2c1 (stereo not drawn)",
    "unit-symbol": "%",
    "absolute recovery": 92.8
  },
  {
    "molecule": "CC=CC(=O)N(CC)c1ccccc1C",
    "unit-symbol": "%",
    "absolute recovery": 75.3
  },
  {
    "molecule": "CC(C)Cc1ccc(C(C)C(=O)[O-])cc1 (stereo not drawn)",
    "unit-symbol": "%",
    "absolute recovery": 118
  },
  {
    "molecule": "N#Cc1nn(-c2c(Cl)cc(C(F)(F)F)cc2Cl)c(N)c1SC(F)(F)F",
    "unit-symbol": "%",
    "absolute recovery": 89.4
  },
  {
    "molecule": "O=C(c1ccccc1)c1ccc(Cl)cc1",
    "unit-symbol": "%",
    "absolute recovery": 86.1
  },
  {
    "molecule": "CCOc1ccc2ccccc2c1C(=O)NC1C(=O)N2C1SC(C)(C)C2C(=O)[O-] (stereo not drawn)",
    "unit-symbol": "%",
    "absolute recovery": 36.7
  },
  {
    "molecule": "OC(Cc1ccccc1Cl)(Cn1[nH]cnc1=S)C1(Cl)CC1 (stereo not drawn)",
    "unit-symbol": "%",
    "absolute recovery": 41.8
  },
  {
    "molecule": "CS(=O)(=O)c1ccc(C(=O)[C-]2C(=O)CCCC2=O)c([N+](=O)[O-])c1",
    "unit-symbol": "%",
    "absolute recovery": 94.6
  },
  {
    "molecule": "CC(C)(C)C(O)C(Oc1ccc(Cl)cc1)n1cncn1 (stereo not drawn)",
    "unit-symbol": "%",
    "absolute recovery": 85.5
  },
  {
    "molecule": "O=c1[nH+]c[n-]c2c1ncn2C1CCC(CO)O1 (stereo not drawn)",
    "unit-symbol": "%",
    "absolute recovery": 83.5
  },
  {
    "molecule": "Cc1c(N)c(=O)n(-c2ccccc2)n1C [4-Aminopyrin (=4-Aminoantipyrin, 4-AA)]",
    "unit-symbol": "%",
    "absolute recovery": 24.6
  },
  {
    "molecule": "COc1nc(C)nc(NC(=O)[N-]S(=O)(=O)c2ccccc2CCC(F)(F)F)n1",
    "unit-symbol": "%",
    "absolute recovery": 104
  },
  {
    "molecule": "COc1ccc2c(c1)c(CC(=O)OCC(=O)[O-])c(C)n2C(=O)c1ccc(Cl)cc1",
    "unit-symbol": "%",
    "absolute recovery": 75.6
  },
  {
    "molecule": "COP(=O)(OC)SCn1c(=O)oc2cc(Cl)cnc21",
    "unit-symbol": "%",
    "absolute recovery": 65.1
  },
  {
    "molecule": "CC(C)c1nc(N(C)S(C)(=O)=O)nc(-c2ccc(F)cc2)c1C=CC(O)CC(O)CC(=O)[O-] (stereo not drawn)",
    "unit-symbol": "%",
    "absolute recovery": 90
  },
  {
    "molecule": "CCCCCCCCn1sc(Cl)c(Cl)c1=O",
    "unit-symbol": "%",
    "absolute recovery": 66.5
  },
  {
    "molecule": "CCNc1nc(Cl)nc(NC(C)C)n1",
    "unit-symbol": "%",
    "absolute recovery": 93.8
  },
  {
    "molecule": "NC(=O)Nc1ccc(Cl)c(Cl)c1",
    "unit-symbol": "%",
    "absolute recovery": 96.4
  },
  {
    "molecule": "CCC(C)c1cc([N+](=O)[O-])cc([N+](=O)[O-])c1[O-] (stereo not drawn)",
    "unit-symbol": "%",
    "absolute recovery": 89.1
  },
  {
    "molecule": "CCC1OC(=O)C(C)C(OC2CC(C)(OC)C(O)C(C)O2)C(C)C(OC2OC(C)CC([N+](C)(C)[O-])C2O)C(C)(OC)CC(C)C(=O)C(C)C(O)C1(C)O (stereo not drawn) [Clarithromycin-N-Oxide]",
    "unit-symbol": "%",
    "absolute recovery": 96.6
  },
  {
    "molecule": "COc1cc(C)c(C(=O)c2c(OC)ccc(Br)c2C)c(OC)c1OC",
    "unit-symbol": "%",
    "absolute recovery": 85.4
  },
  {
    "molecule": "C[NH2+]C(C)Cc1ccccc1 (stereo not drawn)",
    "unit-symbol": "%",
    "absolute recovery": 89.3
  },
  {
    "molecule": "CS(=O)(=O)c1ccc(C(=O)[C-]2C(=O)CCCC2=O)c(Cl)c1COCC(F)(F)F",
    "unit-symbol": "%",
    "absolute recovery": 90.9
  },
  {
    "molecule": "COc1cc(OC)nc(NC(=O)[N-]S(=O)(=O)N(C)S(C)(=O)=O)n1",
    "unit-symbol": "%",
    "absolute recovery": 93.3
  },
  {
    "molecule": "CCCCCC(C)OC(=O)COc1ccc(Cl)c2cccnc12 (stereo not drawn)",
    "unit-symbol": "%",
    "absolute recovery": 70.9
  },
  {
    "molecule": "COc1cc(OC)nc(NC(=O)[N-]S(=O)(=O)c2ncccc2C(=O)N(C)C)n1",
    "unit-symbol": "%",
    "absolute recovery": 96.2
  },
  {
    "molecule": "CC(C)Nc1nc(N)nc(O)n1 [Atrazin-desethyl-2-hydroxy]",
    "unit-symbol": "%",
    "absolute recovery": 71.2
  },
  {
    "molecule": "NC(=O)N1c2ccccc2C=Cc2ccccc21 [Carbamazepin]",
    "unit-symbol": "%",
    "absolute recovery": 93.5
  }
]

====

Assay: absolute recovery over vacuum-assisted evaporative concentration; higher = better recovery
Conditions: wastewater influent; enrichment method: VEC

[
  {
    "compound": "CCC[NH2+]C(C)C(=O)Nc1ccccc1C (stereo not drawn)",
    "absolute recovery [%]": 106
  },
  {
    "compound": "Cc1nc(N(C)C)nc(OC(=O)N(C)C)c1C",
    "absolute recovery [%]": 98.7
  },
  {
    "compound": "CCOP(=O)(OCC)Oc1cc(C)nc(C(C)C)n1",
    "absolute recovery [%]": 95.3
  }
]

====

Let's look at some compounds and their measured absolute recovery.
Assay: absolute recovery over vacuum-assisted evaporative concentration; higher = better recovery
Details: wastewater effluent; enrichment method: VEC

[
  {
    "compound": "O=C1[N-]S(=O)(=O)c2ccccc21",
    "unit-symbol": "%",
    "absolute recovery": 102
  },
  {
    "compound": "CCOC1Oc2ccc(OS(C)(=O)=O)cc2C1(C)C (stereo not given)",
    "unit-symbol": "%",
    "absolute recovery": 105
  },
  {
    "compound": "CC(=O)N1CCN(c2ccc(OCC3COC(Cn4cc[nH+]c4)(c4ccc(Cl)cc4Cl)O3)cc2)CC1 (stereo not given)",
    "unit-symbol": "%",
    "absolute recovery": 71.5
  },
  {
    "compound": "CN(C)C(=[NH2+])NC(N)=[NH2+]",
    "unit-symbol": "%",
    "absolute recovery": 118
  },
  {
    "compound": "O=C(Nc1ccc(F)cc1F)c1cccnc1Oc1cccc(C(F)(F)F)c1",
    "unit-symbol": "%",
    "absolute recovery": 106
  },
  {
    "compound": "CC(C)[NH2+]CC(O)COc1ccc(COCCOC(C)C)cc1 (stereo not given)",
    "unit-symbol": "%",
    "absolute recovery": 110
  },
  {
    "compound": "COc1cc2[nH+]c(N3CCN(C(=O)C4COc5ccccc5O4)CC3)nc(N)c2cc1OC (stereo not given)",
    "unit-symbol": "%",
    "absolute recovery": 107
  },
  {
    "compound": "COc1ccc2c(c1)c(CC(=O)[O-])c(C)n2C(=O)c1ccc(Cl)cc1",
    "unit-symbol": "%",
    "absolute recovery": 104
  },
  {
    "compound": "CCC1(c2ccccc2)C(=O)NCNC1=O",
    "unit-symbol": "%",
    "absolute recovery": 103
  },
  {
    "compound": "CC([NH3+])C12CC3CC(CC(C3)C1)C2 (stereo not given)",
    "unit-symbol": "%",
    "absolute recovery": 105
  },
  {
    "compound": "C[NH2+]CCC(Oc1ccccc1C)c1ccccc1 (stereo not given)",
    "unit-symbol": "%",
    "absolute recovery": 102
  },
  {
    "compound": "N#Cc1cc(Br)c([O-])c(Br)c1",
    "unit-symbol": "%",
    "absolute recovery": 101
  },
  {
    "compound": "CC(=O)N(C)N(C(=O)C(=O)N(C)C)c1ccccc1",
    "unit-symbol": "%",
    "absolute recovery": 114
  },
  {
    "compound": "O=C(OC1CC2CCC(C1)[N+]21CCCC1)C(O)(c1ccccc1)c1ccccc1 (stereo not given)",
    "unit-symbol": "%",
    "absolute recovery": 99.2
  },
  {
    "compound": "N#Cc1c(Cl)c(Cl)c([O-])c(C(=[NH2+])[O-])c1Cl",
    "unit-symbol": "%",
    "absolute recovery": 109
  }
]
